# Test Method Notes: Biodistribution of 177Lu-labeled αMSH analogues in mice bearing SK-MEL-1 human melanoma
# Condition Notes: male, NRG (NOD.Cg-Rag1tm1Mom Il2rgtm1Wjl/SzJ), mouse, tumour/kidney, total radioactivity, 4 h p.i., NRG mice, SK-MEL-1 melanoma
Measured Metric: tissue to tissue ratio at 4 h
Answer with a bare number; do not write a unit.

| Compound | Value Measured |
| --- | --- |
| CCCC[C@H](NC(=O)CN1CCC(NC(=O)[C@H](CCCCNC(=O)CN2CCN(CC(=O)O)CCN(CC(=O)O)CCN(CC(=O)O)CC2)NC(=O)CNC(=O)CCCc2ccc(-c3ccc(C)cc3)cc2)CC1)C(=O)N[C@H]1CC(=O)NCCCC[C@@H](C(N)=O)N(C)C(=O)[C@H](Cc2c[nH]c3ccccc23)NC(=O)[C@H](CCCNC(=N)N)N(C)C(=O)[C@@H](Cc2ccccc2)NC(=O)[C@H](Cc2c[nH]cn2)NC1=O [^177Lu-labeled CCZ01158, metal not drawn] | 2.14 |
| CCCC[C@H](NC(=O)CN1CCC(NC(=O)[C@H](CCCCNC(=O)CN2CCN(CC(=O)O)CCN(CC(=O)O)CCN(CC(=O)O)CC2)NC(=O)CNC(=O)CCCc2ccc(I)cc2)CC1)C(=O)N[C@H]1CC(=O)NCCCC[C@@H](C(N)=O)N(C)C(=O)[C@H](Cc2c[nH]c3ccccc23)NC(=O)[C@H](CCCNC(=N)N)N(C)C(=O)[C@@H](Cc2ccccc2)NC(=O)[C@H](Cc2c[nH]cn2)NC1=O [^177Lu-labeled CCZ01148, metal not drawn] | 0.96 |

Here's the next entry for you.
# return recorded tissue to tissue ratio at 4 h for entry CCCC[C@H](NC(=O)CN1CCC(NC(=O)[C@H](CCCCNC(=O)CN2CCN(CC(=O)O)CCN(CC(=O)O)CCN(CC(=O)O)CC2)NC(=O)[C@H](CCC(=O)O)NC(=O)CCCc2ccc(I)cc2)CC1)C(=O)N[C@H]1CC(=O)NCCCC[C@@H](C(N)=O)N(C)C(=O)[C@H](Cc2c[nH]c3ccccc23)NC(=O)[C@H](CCCNC(=N)N)N(C)C(=O)[C@@H](Cc2ccccc2)NC(=O)[C@H](Cc2c[nH]cn2)NC1=O [^177Lu-labeled CCZ01118, metal not drawn]
1.1

---

# tissue uptake at 120 h per entry
# Test Method Notes: Biodistribution of 177Lu-labeled αMSH analogues in mice bearing SK-MEL-1 human melanoma
# Condition Notes: male, NRG (NOD.Cg-Rag1tm1Mom Il2rgtm1Wjl/SzJ), mouse, stomach, total radioactivity
Note: unit %ID/g is implicit; provide only the numeric part.

A selection of reference data follows.
| Compound | Value Unit | tissue uptake at 120 h |
| --- | --- | --- |
| CCCC[C@H](NC(=O)CN1CCC(NC(=O)[C@H](CCCCNC(=O)CN2CCN(CC(=O)O)CCN(CC(=O)O)CCN(CC(=O)O)CC2)NC(=O)CNC(=O)CCCc2ccc(I)cc2)CC1)C(=O)N[C@H]1CC(=O)NCCCC[C@@H](C(N)=O)N(C)C(=O)[C@H](Cc2c[nH]c3ccccc23)NC(=O)[C@H](CCCNC(=N)N)N(C)C(=O)[C@@H](Cc2ccccc2)NC(=O)[C@H](Cc2c[nH]cn2)NC1=O [^177Lu-labeled CCZ01148, metal not drawn] | %ID/g | 0.47 |
| CCCC[C@H](NC(=O)CN1CCC(NC(=O)[C@H](CCCCNC(=O)CN2CCN(CC(=O)O)CCN(CC(=O)O)CCN(CC(=O)O)CC2)NC(=O)[C@H](CCC(=O)O)NC(=O)CCCc2ccc(I)cc2)CC1)C(=O)N[C@H]1CC(=O)NCCCC[C@@H](C(N)=O)N(C)C(=O)[C@H](Cc2c[nH]c3ccccc23)NC(=O)[C@H](CCCNC(=N)N)N(C)C(=O)[C@@H](Cc2ccccc2)NC(=O)[C@H](Cc2c[nH]cn2)NC1=O [^177Lu-labeled CCZ01118, metal not drawn] | %ID/g | 0.13 |

# return recorded tissue uptake at 120 h for entry CCCC[C@H](NC(=O)CN1CCC(NC(=O)[C@H](CCCCNC(=O)CN2CCN(CC(=O)O)CCN(CC(=O)O)CCN(CC(=O)O)CC2)NC(=O)CNC(=O)CCCc2ccc(-c3ccc(C)cc3)cc2)CC1)C(=O)N[C@H]1CC(=O)NCCCC[C@@H](C(N)=O)N(C)C(=O)[C@H](Cc2c[nH]c3ccccc23)NC(=O)[C@H](CCCNC(=N)N)N(C)C(=O)[C@@H](Cc2ccccc2)NC(=O)[C@H](Cc2c[nH]cn2)NC1=O [^177Lu-labeled CCZ01158, metal not drawn]
1.24

Recorded values, source patent US11395857B2.
